molecular target: human carbonic anhydrase IX (CAIX) (human, UniProt Q16790 38-459); experiment: FACS competition, HT-29 cells, tracer 3BP-4149; pIC50 category A: >8.0
Starred links: 1 amine or outer side, 2 acyl side, 3 side chain; linkers in the order of their positions; H or OH if unused. Positions of bridges follow the written chain, without caps; N, C: chain ends. Non-standard residues stand in square brackets, D forms with d. Primed or numbered codes have the meaning given here. *: point of attachment. Aph(2Ta5Sa)″ = 4-amino-L-phenylalanine, ring amine acylated by 5-sulfamoyl-thiophene-2-carboxylic acid, NS(=O)(=O)c1ccc(C(=O)Nc2ccc(C[C@H](N[*:1])C(=O)[*:2])cc2)s1; Af3(2Ta5Sa) = 3-amino-L-phenylalanine, ring amine acylated by 5-sulfamoyl-thiophene-2-carboxylic acid, NS(=O)(=O)c1ccc(C(=O)Nc2cccc(C[C@H](N[*:1])C(=O)[*:2])c2)s1; Af3(3Ta5Sa) = 3-aminophenylalanine, ring amine acylated with 5-sulfamoylthiophene-3-carboxylic acid, NS(=O)(=O)c1cc(C(=O)Nc2cccc(C[C@H](N[*:1])C(=O)[*:2])c2)cs1; Aph(3Ta5Sa) = 4-aminophenylalanine, ring amine acylated with 5-sulfamoylthiophene-3-carboxylic acid, NS(=O)(=O)c1cc(C(=O)Nc2ccc(C[C@H](N[*:1])C(=O)[*:2])cc2)cs1; Aph(3SaBz) = 4-aminophenylalanine, ring amine acylated with 3-sulfamoylbenzoic acid, NS(=O)(=O)c1cccc(C(=O)Nc2ccc(C[C@H](N[*:1])C(=O)[*:2])cc2)c1; Aph(SaPr)(4) = 4-aminophenylalanine, ring amine acylated with 3-sulfamoylpropanoic acid, NS(=O)(=O)CCC(=O)Nc1ccc(C[C@H](N[*:1])C(=O)[*:2])cc1; Af3(SaPr) = 3-aminophenylalanine, ring amine acylated with 3-sulfamoylpropanoic acid, NS(=O)(=O)CCC(=O)Nc1cccc(C[C@H](N[*:1])C(=O)[*:2])c1; Af3(HO-Succinyl)″ = 3-aminophenylalanine, ring amine acylated with succinic acid, O=C(CCC(=O)[*:3])Nc1cccc(C[C@H](N[*:1])C(=O)[*:2])c1; DOTA = O=C(O)CN1CCN(CC(=O)O)CCN(CC(=O)*)CCN(CC(=O)O)CC1; Phe(3,4-Cl2) = N[C@@H](Cc1ccc(Cl)c(Cl)c1)C(=O)O; mXylylene = c1cc(C[*:1])cc(C[*:2])c1; PPAc″ = not defined here; APAc = not defined here; Dap = NC[C@H](N)C(=O)O
PARAMETER: pIC50

As a guide, the following entries are already answered.
{"BINDER": "{DOTA-APAc}-VYCE[dP]D[Af3(3Ta5Sa)]LTWSC-NH2 (linker 3-12 via mXylylene; reading uncertain) [3BP-4412]", "pIC50": "> 8 pic50"}
{"BINDER": "{DOTA-APAc}-VYCE[dP]D[Aph(SaPr)(4)]LTWSC-NH2 (linker 3-12 via mXylylene; reading uncertain) [3BP-4400]", "pIC50": "> 8 pic50"}
{"BINDER": "{DOTA-APAc}-VDCE[dP]D[Phe(3,4-Cl2)]LTW[Dap]C-NH2 (lactam 2-11; linker 3-12 via mXylylene; reading uncertain) [3BP-4439]", "pIC50": "> 8 pic50"}
{"BINDER": "{DOTA-APAc}-VYCE[dP]D[Aph(3SaBz)]LTWSC-NH2 (linker 3-12 via mXylylene; reading uncertain) [3BP-4408]", "pIC50": "> 8 pic50"}
{"BINDER": "{DOTA-PPAc″}-YCE[dP]D[Aph(2Ta5Sa)″]LTWSC-NH2 (linker 2-11 via mXylylene; reading uncertain) [3BP-4457]", "pIC50": "> 8 pic50"}

### Prompt What measured pIC50 goes with {DOTA-APAc}-VYCE[dP]D[Aph(3Ta5Sa)]LTWSC-NH2 (linker 3-12 via mXylylene; reading uncertain) [3BP-4401] ?
### Response > 8 pic50

### Prompt Then this binder: {DOTA-APAc}-VDCE[dP]D[Af3(HO-Succinyl)″]LTW[Dap]C-NH2 (lactam 2-11; linker 3-12 via mXylylene; reading uncertain) [3BP-4377]
### Response > 8 pic50

### Prompt Then this binder: {DOTA-APAc}-VYCE[dP]D[Af3(SaPr)]LTWSC-NH2 (linker 3-12 via mXylylene; reading uncertain) [3BP-4407]
### Response > 8 pic50

### Prompt Then this binder: {DOTA-APAc}-VYCE[dP]D[Af3(2Ta5Sa)]LTWSC-NH2 (linker 3-12 via mXylylene; reading uncertain) [3BP-4413]
### Response > 8 pic50
